Give Concentration of Ethylalcohol in Plasma for every item shown.
# Test system: alcohol metabolic function of liver
# Method notes: Effect on concentration of ethylalcohol in the blood (mice)
# Assay type: in vivo
# Condition context: 5 min; 250 mg/kg oral pre-treatment, ethylalcohol 1,000 mg/kg oral after 6 h; control 875 ± 203
Numbers only, in ppm..

Look over these answered cases.
> print(dat)
                                   compound  reading.unit  number
1  CCCOC(=O)C(C(=O)OCCC)=C1SCCCS1 [Compound 10]          ppm.     753
2   CCOC(=O)C(C(=O)OCC)=C1SCS1 [Compound 2]          ppm.     714
3  CCOC(=O)C(C(=O)OC(C)CC)=C1SCCCCS1 (stereo not shown) [Compound 20]          ppm.     710

*Q* Which Concentration of Ethylalcohol in Plasma value belongs to CC(C)OC(=O)C(C(=O)OC(C)C)=C1SCS1 [Compound 4] ?
*A* 695

###

# Tested on: alcohol metabolic function of liver
# Method notes: Effect on concentration of ethylalcohol in the blood (mice)
# Type: in vivo
# Condition context: 60 min; 250 mg/kg oral pre-treatment, ethylalcohol 1,000 mg/kg oral after 6 h; control 167 ± 76
Give Concentration of Ethylalcohol in Plasma for every item shown.
Answers are plain numbers, in ppm..

Look over these answered cases.
> print(dat)
                                   compound                         study.target  number
1  CCOC(=O)C(C(=O)OC(C)CC)=C1SCCCCS1 (stereo not shown)  alcohol metabolic function of liver      18
2            CCCOC(=O)C(C(=O)OCCC)=C1SCCCS1  alcohol metabolic function of liver      12
3                CCOC(=O)C(C(=O)OCC)=C1SCS1  alcohol metabolic function of liver      15

Now turn to the next compound.
*Q* Which Concentration of Ethylalcohol in Plasma value belongs to CC(C)OC(=O)C(C(=O)OC(C)C)=C1SCS1 ?
*A* 15

###

# Tested on: alcohol metabolic function of liver
# Method notes: Effect on concentration of ethylalcohol in the blood (mice)
# Format: in vivo
# Condition context: 30 min; 250 mg/kg oral pre-treatment, ethylalcohol 1,000 mg/kg oral after 6 h; control 690 ± 214
Property measured: Concentration of Ethylalcohol in Plasma (ppm.)
Numbers only, in ppm..

> print(dat)
                                   molecule                         study.target  number
1            CCCOC(=O)C(C(=O)OCCC)=C1SCCCS1  alcohol metabolic function of liver     451
2                CCOC(=O)C(C(=O)OCC)=C1SCS1  alcohol metabolic function of liver     426
3  CCOC(=O)C(C(=O)OC(C)CC)=C1SCCCCS1 (stereo not shown)  alcohol metabolic function of liver     404

Now turn to the next molecule.
*Q* Which Concentration of Ethylalcohol in Plasma value belongs to CC(C)OC(=O)C(C(=O)OC(C)C)=C1SCS1 ?
*A* 410
